- System Tested: Vascular endothelial growth factor receptor 2 (Homo sapiens, UniProt P35968)
- Sequence (P35968 whole entry): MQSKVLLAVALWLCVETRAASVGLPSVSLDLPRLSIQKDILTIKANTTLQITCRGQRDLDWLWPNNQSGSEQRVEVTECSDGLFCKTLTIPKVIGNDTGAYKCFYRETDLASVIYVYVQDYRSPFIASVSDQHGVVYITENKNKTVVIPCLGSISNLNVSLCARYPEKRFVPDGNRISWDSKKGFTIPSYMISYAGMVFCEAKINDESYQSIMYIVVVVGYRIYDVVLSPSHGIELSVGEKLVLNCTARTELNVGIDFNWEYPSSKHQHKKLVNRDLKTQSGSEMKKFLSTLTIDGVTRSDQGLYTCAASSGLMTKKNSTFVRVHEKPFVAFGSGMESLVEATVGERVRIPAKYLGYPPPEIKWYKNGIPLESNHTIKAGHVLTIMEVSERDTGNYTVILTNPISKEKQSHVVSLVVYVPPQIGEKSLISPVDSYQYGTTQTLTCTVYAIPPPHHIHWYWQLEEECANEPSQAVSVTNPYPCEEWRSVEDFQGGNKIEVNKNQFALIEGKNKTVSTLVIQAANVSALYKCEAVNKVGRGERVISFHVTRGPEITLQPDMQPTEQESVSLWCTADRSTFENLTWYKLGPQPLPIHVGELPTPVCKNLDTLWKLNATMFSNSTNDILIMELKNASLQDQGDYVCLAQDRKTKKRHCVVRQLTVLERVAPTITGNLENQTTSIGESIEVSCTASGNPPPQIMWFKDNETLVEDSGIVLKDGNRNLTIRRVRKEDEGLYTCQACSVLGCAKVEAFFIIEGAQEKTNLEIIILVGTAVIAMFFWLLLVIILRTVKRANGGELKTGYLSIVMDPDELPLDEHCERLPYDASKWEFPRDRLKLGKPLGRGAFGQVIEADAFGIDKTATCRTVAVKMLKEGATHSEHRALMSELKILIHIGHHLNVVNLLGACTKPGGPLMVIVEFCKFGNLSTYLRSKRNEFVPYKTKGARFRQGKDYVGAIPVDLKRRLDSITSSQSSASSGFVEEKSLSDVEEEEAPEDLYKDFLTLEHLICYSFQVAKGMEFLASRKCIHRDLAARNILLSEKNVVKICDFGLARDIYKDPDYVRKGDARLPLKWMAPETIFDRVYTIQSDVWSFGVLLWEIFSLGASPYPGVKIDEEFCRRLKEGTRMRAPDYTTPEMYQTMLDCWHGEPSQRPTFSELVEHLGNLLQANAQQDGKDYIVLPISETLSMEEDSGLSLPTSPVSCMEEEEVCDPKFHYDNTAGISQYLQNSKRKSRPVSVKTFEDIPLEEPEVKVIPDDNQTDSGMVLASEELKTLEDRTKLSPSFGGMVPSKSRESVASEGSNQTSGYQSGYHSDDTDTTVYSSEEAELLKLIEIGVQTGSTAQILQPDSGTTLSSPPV
Measure Name: IC50 (nM)

>>> data_value("CC(c1cc(NC(=O)Nc2ccc(Oc3ccnc(NC(=O)C4CC4)c3)c(F)c2)cc(C(F)(F)F)c1)N1CCNCC1 (stereo unspecified)")
26.6
